B1: LINE1-mini (parent)
chain: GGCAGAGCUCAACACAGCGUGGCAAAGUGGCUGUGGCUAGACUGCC

Variants of: B1
test.name: self-cleavage, relative activity (ratio to wild type); higher = more cleavage; in vitro, sequencing; the parent is a self-cleaving ribozyme
Grouping key: self-cleavage. Bins: c1: < 0.09; c2: ≥ 0.09 and < 0.2; c3: ≥ 0.2

Hello team, could you let me know which band the following variant falls into: U9C G33A c1

Hello team, could you let me know which band the following variant falls into: C3U G19A c3

Hello team, could you let me know which band the following variant falls into: C3G U34G c1

Hello team, could you let me know which band the following variant falls into: C10G A26U c2

Hello team, could you let me know which band the following variant falls into: C3A C13G c3

Hello team, could you let me know which band the following variant falls into: U28A U43G c1

Hello team, could you let me know which band the following variant falls into: A12C U32C c1

Hello team, could you let me know which band the following variant falls into: U32G U34C c1

Hello team, could you let me know which band the following variant falls into: C23A G44U c3

Hello team, could you let me know which band the following variant falls into: C15G A39U c1

Hello team, could you let me know which band the following variant falls into: G17A U20A c2

Hello team, could you let me know which band the following variant falls into: C23A C42A c3

Hello team, could you let me know which band the following variant falls into: A25G C45A c3

Hello team, could you let me know which band the following variant falls into: G19A U34A c2

Hello team, could you let me know which band the following variant falls into: A16G A39C c2

Hello team, could you let me know which band the following variant falls into: G2U C13A c1

Hello team, could you let me know which band the following variant falls into: G29U A39G c1

Hello team, could you let me know which band the following variant falls into: A25C U28G c3

Hello team, could you let me know which band the following variant falls into: G2C C45U c2

Hello team, could you let me know which band the following variant falls into: U20A A39G c1

Hello team, could you let me know which band the following variant falls into: A6G G22U c2

Hello team, could you let me know which band the following variant falls into: A6U C37U c1

Hello team, could you let me know which band the following variant falls into: C15U G21A c3

Hello team, could you let me know which band the following variant falls into: C10A U34G c1

Hello team, could you let me know which band the following variant falls into: C18A C45A c3

Hello team, could you let me know which band the following variant falls into: A6C G30U c3

Hello team, could you let me know which band the following variant falls into: A16C G35C c1

Hello team, could you let me know which band the following variant falls into: G2A C42A c3

Hello team, could you let me know which band the following variant falls into: G30A G44U c2

Hello team, could you let me know which band the following variant falls into: G17U G36U c1

Hello team, could you let me know which band the following variant falls into: G7C C37U c2

Hello team, could you let me know which band the following variant falls into: G17A U28C c3

Hello team, could you let me know which band the following variant falls into: G35A C42A c1

Hello team, could you let me know which band the following variant falls into: C23A U43G c1

Hello team, could you let me know which band the following variant falls into: G7C A25U c2

Hello team, could you let me know which band the following variant falls into: G17A G21A c3

Hello team, could you let me know which band the following variant falls into: G2A C23A c3

Hello team, could you let me know which band the following variant falls into: C23G A25C c3

Hello team, could you let me know which band the following variant falls into: A26G C45U c3

Hello team, could you let me know which band the following variant falls into: "C13G" c3

Hello team, could you let me know which band the following variant falls into: C18A G22C c3

Hello team, could you let me know which band the following variant falls into: A6G G35C c2

Hello team, could you let me know which band the following variant falls into: G30U G36A c2
